target: Focal adhesion kinase 1 (Homo sapiens); experiment: small-molecule microarray binders of FAK, primary screen, biochemical, 635/667 nm fluorescence, BSA, DTT (AID 1130); conditions: PTK2 binding, 635 nm fluorescence, higher = more signal;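 note: composite of spot emission at 667 nm and signal to noise over triplicate slides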
Measured composite z-score by item
Field format: numeric only.

Ask: Quick one: composite z-score of C[C@]1(C(=O)NCC(F)(F)F)c2ccccc2C(=O)N(Cc2ccc(OC(F)(F)F)cc2)[C@H]1c1ccc(CO)cc1 ?
Result: 0.273

Ask: Likewise for C=CCC(OC(C)=O)[C@@H]1[C@@H](N(Cc2cc3ccccc3o2)C(=O)Cc2ccc(OC)cc2)c2cc(OCCCO)ccc2N1C(=O)Cc1ccc2ccccc2c1 (some centres not stated) ?
Result: 0.102

Ask: Likewise for COc1ccc(CC[C@H](O)c2cccc(OCC(=O)OC(C)(C)C)c2)cc1 ?
Result: 0.464

Ask: Likewise for CO[C@H]1O[C@H](CO)[C@@H](OC(=O)Nc2ccc(C(F)(F)F)cc2)[C@H](OC(=O)Nc2ccccc2-c2ccccc2)[C@@H]1OC(=O)Nc1ccccc1-c1ccccc1 ?
Result: 0.799

Ask: Likewise for C=CC[C@@]12N=C(c3ccc(OCCCO)cc3)O[C@@H]1c1ccccc1N(Cc1ccccc1)C2=O ?
Result: 0.986

Ask: Likewise for COCCOC(=O)N1C(=O)[C@@]2(c3cc(C#CCCO)ccc31)[C@H](C(=O)N1CCN(c3ncccn3)CC1)[C@H]1C(=O)O[C@H](c3ccccc3)[C@H](c3ccccc3)N1[C@@H]2c1ccc(O)cc1 ?
Result: 1.19

Ask: Likewise for CCCCN1CC=CC23O[C@@H]4/C=C\CCC(C)OC(=O)C4[C@H]2C(=O)N(C(C)CO)[C@@H]3C1=O (some centres not stated) ?
Result: 0.578

Where do the numbers come from? From PubChem BioAssay.
